# PROCEDURE TEXT: Protein binding in human serum
# Format: ADME, cell-free
# TEST CONTEXT: read-out: PB (converted)
MEASUREMENT TYPE: fraction unbound
Lab note: record the figure alone, no unit after it.

Asked: Find the measured fraction unbound of COc1cc(-n2cnc3cc(-c4ccc(Cl)cc4)sc3c2=O)ccc1OC[C@H](O)C1CC1 and report it.
Given back: 0.005

====

# PROCEDURE TEXT: Protein binding in monkey serum
# Format: ADME, cell-free, Macaca mulatta
# TEST CONTEXT: rhesus monkey, read-out: PB (converted)
MEASUREMENT TYPE: fraction unbound
Lab note: record the figure alone, no unit after it.

Asked: Find the measured fraction unbound of COc1cc(-n2cnc3cc(-c4ccc(Cl)cc4)sc3c2=O)ccc1OC[C@H](O)C1CC1 and report it.
Given back: 0.007
